- Test system: UO-31 renal
- assayProtocol: NCI tumour cell line growth inhibition, 48 h
reportedProperty: TGI

[[record]]
compound = "Cc1sc(C)c(Cc2c(C)sc(C)c2CCl)c1CCl"
readoutvalue = "> 100 µM"


// sample CN(C)c1nc(NC23CC4CC(CC(C4)C2)C3)nc(N(C)C)n1 , its TGI was > 77.2 µM

// sample COc1cc2noc(-c3ccccc3)c2cc1OC , its TGI was > 100 µM

// sample C1CSCCCSCCSCCCSC1 , its TGI was > 100 µM

// sample CC(=O)OCCOCNC(=S)N/N=C(\C)c1cnc2ccccc2n1 , its TGI was > 100 µM

// sample CC(C)CCC[C@@H](C)[C@H]1CCC2C3CC=C4C[C@@H](Oc5c6ccccc6nc6ccccc56)CCC4C3CCC21 (some centres not stated) , its TGI was > 50 µM

// sample Clc1ccc(Cc2nc3ccc(CCN4CCN(c5ccccc5)CC4)cc3[nH]2)cc1 , its TGI was 20.3 µM

// sample CN(C)C(N)=NC#N , its TGI was > 100 µM
